# maps each entry to its pIC50
Target Under Test: BRD4 (BD1+BD2) bromodomain (Homo sapiens (Human))
Experiment Summary: BRD4 binding inhibition (AlphaScreen, GST-BRD4 vs tetraacetylated histone H4 peptide)
Test Parameters: GST-BRD4 (BD1+BD2) / biotinylated acetyl-histone H4 (Lys5,8,12,16) peptide; read-out: IC50, BRD4 binding inhibition
pIC50: −log10 of the molar value.

# count of solved cases: 5
>  <Cpd Smiles>
Cc1nnc2c(NCCCCNC(=O)OC(C)C)nc3ccccc3n12

>  <Target Under Test>
BRD4 (BD1+BD2) bromodomain (Homo sapiens (Human))

>  <pIC50>
≥ 7.30

$$$$
>  <Cpd Smiles>
Cc1nnc2c(NCCCCNC(=O)CC(C)C)nc3cc(-c4nc5ccccc5[nH]4)ccc3n12

>  <Target Under Test>
BRD4 (BD1+BD2) bromodomain (Homo sapiens (Human))

>  <pIC50>
≥ 7.30

$$$$
>  <Cpd Smiles>
COCCOc1ccc2c(c1)nc(NCCCCNC(=O)NC1CCCCC1)c1nnc(C)n12

>  <Target Under Test>
BRD4 (BD1+BD2) bromodomain (Homo sapiens (Human))

>  <pIC50>
≥ 7.30

$$$$
>  <Cpd Smiles>
COc1ccc2nc(NCCCCNC(=O)c3ccc(C)nc3Cl)c3nnc(C)n3c2c1

>  <Target Under Test>
BRD4 (BD1+BD2) bromodomain (Homo sapiens (Human))

>  <pIC50>
≥ 7.30

$$$$
>  <Cpd Smiles>
COc1cc2nc(NCCCCNC(=O)Cc3ccco3)c3nnc(C)n3c2cc1OC

>  <Target Under Test>
BRD4 (BD1+BD2) bromodomain (Homo sapiens (Human))

>  <pIC50>
≥ 7.30

$$$$

[Q] What value of pIC50 has been recorded for this entry: COc1ccc2c(c1)nc(NCCCCNC(=O)OC(C)C)c1nnc(C(F)(F)F)n12
[A] ≥ 7.30

[Q] Same question, CCCNc1ccc2c(c1)nc(NCCCCNC(=O)CC(C)C)c1nnc(C)n12 this time
[A] ≥ 7.30

[Q] Same question, Cc1nnc2c(NCCCCNC(=O)CC(C)C)nc3cc(OC4CCOCC4)ccc3n12 this time
[A] ≥ 8.00

---

# maps each entry to its pIC50
Target Under Test: BRD4 (BD1+BD2) bromodomain (Homo sapiens (Human), UniProt O60885)
Experiment Summary: BRD4 binding inhibition (AlphaScreen, GST-BRD4 vs tetraacetylated histone H4 peptide)
Test Parameters: GST-BRD4 (BD1+BD2) vs biotinylated acetyl-histone H4 peptide, AlphaScreen; read-out: BRD4 IC50
Please treat pIC50 as minus the base-10 logarithm of the molar concentration.

# count of solved cases: 3
>  <Compound>
CCc1nnc2c(NCCCCNC(=O)OC(C)(C)C)nc3cc(OC)ccc3n12 [Example 620]

>  <Target Under Test>
BRD4 (BD1+BD2) bromodomain (Homo sapiens (Human), UniProt O60885)

>  <Observed Measurement>
7.80

$$$$
>  <Compound>
Cc1nnc2c(NCCCCNC(=O)OC(C)C)nc3cc(-n4ccnc4)ccc3n12 [Example 494]

>  <Target Under Test>
BRD4 (BD1+BD2) bromodomain (Homo sapiens (Human), UniProt O60885)

>  <Observed Measurement>
7.85

$$$$
>  <Compound>
COc1c(C)ccc2c1nc(NCCCCNC(=O)OC(C)(C)C)c1nnc(C)n12 [Example 130]

>  <Target Under Test>
BRD4 (BD1+BD2) bromodomain (Homo sapiens (Human), UniProt O60885)

>  <Observed Measurement>
7.44

$$$$

[Q] What value of pIC50 has been recorded for this entry: Cc1nnc2c(NCCCCOC(=O)CC(C)(C)C)nc3ccccc3n12 [Example 633]
[A] 7.62

[Q] Same question, COc1ccc2c(c1)nc(NCCCCNC(=O)[C@H](C(C)C)N1CCC(O)CC1)c1nnc(C)n12 [Example 316] this time
[A] 7.39

[Q] Same question, COc1cc2nc(NCCCCNC(=O)CC(C)C)c3nnc(C)n3c2cc1OCCN1CCOCC1 [Example 576] this time
[A] 7.28

[Q] Same question, COc1cc2nc(NCCCCNC(=O)CCC3CCCC3)c3nnc(C)n3c2cc1OC [Example 81] this time
[A] 8.00

[Q] Same question, COCCOc1ccc2c(c1)nc(NCCCCNC(=O)c1ccncc1)c1nnc(C)n12 [Example 418] this time
[A] 7.31

[Q] Same question, COc1cc2nc(NCCCCNC(=O)c3ccccc3Cl)c3nnc(C)n3c2cc1C(F)(F)F [Example 481] this time
[A] 7.29

[Q] Same question, COCCOc1ccc2c(c1)nc(NCCCCNC(=O)CC(C)C)c1nnc(C)n12 [Example 365] this time
[A] 7.89
